This collection of values is drawn from paper PMC10981686.

Biological target: CaV1.2^Q1060F (Homo sapiens, UniProt Q13936, Q1060F)
Construct: superfolder GFP (sfGFP) (C); Twin-Strep (C); expressed in transfected cells; host or cells: HEK293T
Sequence (Q13936 whole entry Q1060F): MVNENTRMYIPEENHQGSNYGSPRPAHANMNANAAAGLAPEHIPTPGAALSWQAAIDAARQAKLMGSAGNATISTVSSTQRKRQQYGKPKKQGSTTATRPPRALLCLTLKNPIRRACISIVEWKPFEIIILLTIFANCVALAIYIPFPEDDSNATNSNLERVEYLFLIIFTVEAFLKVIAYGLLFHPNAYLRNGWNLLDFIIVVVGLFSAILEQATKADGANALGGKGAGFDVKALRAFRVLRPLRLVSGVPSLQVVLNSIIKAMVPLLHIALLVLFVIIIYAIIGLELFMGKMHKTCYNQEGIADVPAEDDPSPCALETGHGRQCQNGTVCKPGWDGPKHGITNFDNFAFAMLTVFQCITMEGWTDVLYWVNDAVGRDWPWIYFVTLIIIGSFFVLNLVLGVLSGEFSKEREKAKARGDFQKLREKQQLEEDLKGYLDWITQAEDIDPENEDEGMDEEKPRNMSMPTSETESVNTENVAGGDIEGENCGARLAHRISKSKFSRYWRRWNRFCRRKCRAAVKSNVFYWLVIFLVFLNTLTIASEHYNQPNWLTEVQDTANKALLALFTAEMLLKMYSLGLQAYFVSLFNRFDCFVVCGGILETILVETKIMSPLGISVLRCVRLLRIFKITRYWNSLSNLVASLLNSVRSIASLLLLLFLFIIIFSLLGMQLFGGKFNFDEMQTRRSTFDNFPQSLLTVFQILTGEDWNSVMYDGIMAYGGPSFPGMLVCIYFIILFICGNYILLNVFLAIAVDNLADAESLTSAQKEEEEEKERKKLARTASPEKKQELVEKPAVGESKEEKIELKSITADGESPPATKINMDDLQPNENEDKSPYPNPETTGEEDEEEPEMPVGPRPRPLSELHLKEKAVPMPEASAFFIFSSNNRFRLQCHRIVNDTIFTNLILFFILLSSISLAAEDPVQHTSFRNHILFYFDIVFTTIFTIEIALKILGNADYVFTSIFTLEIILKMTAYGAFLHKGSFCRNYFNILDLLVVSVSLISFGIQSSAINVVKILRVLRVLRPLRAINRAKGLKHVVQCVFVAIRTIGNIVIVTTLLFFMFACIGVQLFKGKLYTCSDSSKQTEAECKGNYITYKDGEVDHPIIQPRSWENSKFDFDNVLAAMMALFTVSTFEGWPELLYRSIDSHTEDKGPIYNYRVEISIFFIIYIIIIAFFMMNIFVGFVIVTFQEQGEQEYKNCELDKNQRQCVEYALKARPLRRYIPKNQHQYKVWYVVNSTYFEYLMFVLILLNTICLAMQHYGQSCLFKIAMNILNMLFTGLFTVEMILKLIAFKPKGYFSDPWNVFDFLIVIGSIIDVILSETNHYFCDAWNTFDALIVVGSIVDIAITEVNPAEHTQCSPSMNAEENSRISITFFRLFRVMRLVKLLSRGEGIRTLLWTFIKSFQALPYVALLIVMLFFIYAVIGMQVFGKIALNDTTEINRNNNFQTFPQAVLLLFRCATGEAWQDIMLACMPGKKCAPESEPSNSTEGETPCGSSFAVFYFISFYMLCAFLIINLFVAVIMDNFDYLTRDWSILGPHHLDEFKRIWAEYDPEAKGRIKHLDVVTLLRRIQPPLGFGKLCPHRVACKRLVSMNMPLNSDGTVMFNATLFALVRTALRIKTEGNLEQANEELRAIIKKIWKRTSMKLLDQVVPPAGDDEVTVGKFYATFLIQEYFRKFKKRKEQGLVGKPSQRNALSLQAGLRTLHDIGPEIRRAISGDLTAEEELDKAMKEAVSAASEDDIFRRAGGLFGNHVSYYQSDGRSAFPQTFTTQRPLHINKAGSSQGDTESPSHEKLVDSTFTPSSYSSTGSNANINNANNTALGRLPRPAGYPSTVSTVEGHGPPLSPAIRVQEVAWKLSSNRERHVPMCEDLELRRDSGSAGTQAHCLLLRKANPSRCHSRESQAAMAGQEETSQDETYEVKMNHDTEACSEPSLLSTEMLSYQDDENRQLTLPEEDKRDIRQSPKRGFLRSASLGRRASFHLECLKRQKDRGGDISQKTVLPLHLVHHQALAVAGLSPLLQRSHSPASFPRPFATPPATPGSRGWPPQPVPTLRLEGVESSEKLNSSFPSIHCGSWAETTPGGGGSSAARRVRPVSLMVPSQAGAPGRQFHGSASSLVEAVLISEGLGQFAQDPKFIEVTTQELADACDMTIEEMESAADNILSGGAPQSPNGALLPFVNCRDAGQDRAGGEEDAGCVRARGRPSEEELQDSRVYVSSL
Sequence (P54289 25-946 partner limits assumed): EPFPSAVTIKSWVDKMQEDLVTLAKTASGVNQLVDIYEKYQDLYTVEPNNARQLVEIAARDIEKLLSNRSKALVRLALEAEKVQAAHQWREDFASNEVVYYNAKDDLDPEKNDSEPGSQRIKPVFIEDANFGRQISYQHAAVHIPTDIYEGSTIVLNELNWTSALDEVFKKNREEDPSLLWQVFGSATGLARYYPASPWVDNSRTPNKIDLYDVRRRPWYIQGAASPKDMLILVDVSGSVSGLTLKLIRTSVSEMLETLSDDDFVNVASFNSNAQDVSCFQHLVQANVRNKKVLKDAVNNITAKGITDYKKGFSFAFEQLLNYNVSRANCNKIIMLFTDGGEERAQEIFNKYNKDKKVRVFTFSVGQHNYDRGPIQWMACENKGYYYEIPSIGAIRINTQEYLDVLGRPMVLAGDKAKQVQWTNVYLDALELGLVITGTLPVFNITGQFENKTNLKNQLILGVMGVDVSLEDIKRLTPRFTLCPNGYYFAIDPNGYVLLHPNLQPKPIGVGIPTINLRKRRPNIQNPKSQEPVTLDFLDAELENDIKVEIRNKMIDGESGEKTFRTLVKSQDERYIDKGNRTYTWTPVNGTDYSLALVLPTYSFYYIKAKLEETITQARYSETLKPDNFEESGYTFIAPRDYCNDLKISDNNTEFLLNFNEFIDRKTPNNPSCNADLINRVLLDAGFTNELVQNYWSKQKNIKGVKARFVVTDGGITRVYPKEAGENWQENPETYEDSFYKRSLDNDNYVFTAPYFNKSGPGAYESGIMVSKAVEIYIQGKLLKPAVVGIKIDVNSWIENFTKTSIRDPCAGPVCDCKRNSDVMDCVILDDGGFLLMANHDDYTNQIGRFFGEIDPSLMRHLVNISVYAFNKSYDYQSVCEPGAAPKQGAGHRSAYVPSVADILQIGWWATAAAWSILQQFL
Sequence (P54289 947-1103 partner limits assumed): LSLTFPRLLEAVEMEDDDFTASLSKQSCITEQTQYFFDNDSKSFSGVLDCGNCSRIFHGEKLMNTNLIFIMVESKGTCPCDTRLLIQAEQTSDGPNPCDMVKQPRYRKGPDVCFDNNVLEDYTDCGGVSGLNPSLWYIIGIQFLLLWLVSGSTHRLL
Sequence (Q08289 1-606 isoform Q08289-3 partner): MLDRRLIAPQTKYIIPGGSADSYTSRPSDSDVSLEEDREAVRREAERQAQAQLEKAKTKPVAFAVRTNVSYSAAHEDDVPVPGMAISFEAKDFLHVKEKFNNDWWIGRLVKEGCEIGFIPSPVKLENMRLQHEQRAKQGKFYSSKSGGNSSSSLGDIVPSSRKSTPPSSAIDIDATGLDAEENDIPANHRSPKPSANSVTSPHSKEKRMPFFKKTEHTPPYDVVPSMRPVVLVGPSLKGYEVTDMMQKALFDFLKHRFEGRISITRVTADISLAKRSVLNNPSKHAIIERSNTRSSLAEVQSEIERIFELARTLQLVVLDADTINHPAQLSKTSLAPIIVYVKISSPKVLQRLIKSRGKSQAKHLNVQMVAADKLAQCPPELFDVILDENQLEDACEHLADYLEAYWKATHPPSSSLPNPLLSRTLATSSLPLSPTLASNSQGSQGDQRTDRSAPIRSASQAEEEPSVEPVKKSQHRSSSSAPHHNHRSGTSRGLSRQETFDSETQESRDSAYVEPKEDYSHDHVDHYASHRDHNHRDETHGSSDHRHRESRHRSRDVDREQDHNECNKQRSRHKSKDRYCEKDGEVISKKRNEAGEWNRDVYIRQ
Experiment: whole-cell patch clamp inhibition curves in HEK293T cells, Q1060F mutant
Format: cell-based
Settings: benidipine, Q1060F; variable slope fit; X values in μM per sheet Supplementary Figure 7c; read-out: IC50 (best-fit value)
outcome measure: IC50 (µM)
The reply should contain only the number, in µM.

Reported IC50, compound COC(=O)C1=C(C)NC(C)=C(C(=O)OC2CCCN(Cc3ccccc3)C2)C1c1cccc([N+](=O)[O-])c1 (stereo not shown) [benidipine] : ____
11.7
